The values you see were collected from patent US20240148821A1.

# Target of assay: protein-protein interaction between Kras and SOS1 (biotin-tagged human Kras loaded with GDP, His-tagged human SOS1) (Homo sapiens (Human), UniProt P01116, G12D)
# Experiment: Protein-protein interaction inhibition between Kras and SOS1 (KrasG12D-SOS PPI) using AlphaScreen;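 further: kras produced in E. coli, Ni-coupled donor beads and streptavidin acceptor beads, excitation 680 nm with emission detected at 520–620 nm via singlet oxygen transfer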
# Format: biochemical
# Test parameters: AlphaScreen; biotin-tagged human Kras loaded with GDP, His-tagged human SOS1; read-out: KRAS G12D-SOS PPI IC50
Numbered stars: 1 amine (or outer) side, 2 acyl side, 3 side chain; on linkers, the order of the positions; unused ones are H or OH. Bridge positions count the residues as written; N and C are the ends. Square brackets hold non-standard residues; d marks the D form. Peptide text beside a SMILES is read from it. * marks the point of attachment. hPhe(3-Cl-4-CF3) = N[C@@H](CCc1ccc(C(F)(F)F)c(Cl)c1)C(=O)O; hPhe(3-F,4-CF3) = N[C@@H](CCc1ccc(C(F)(F)F)c(F)c1)C(=O)O; NMedβ3hAla = C[C@H](CC(=O)[*:2])N(C)[*:1]; NMeGly(cPent) = CN[C@H](C(=O)O)C1CCCC1; NMeCha = CN[C@@H](CC1CCCCC1)C(=O)O; NEtLeu = CCN[C@@H](CC(C)C)C(=O)O; NMeD = CN[C@@H](CC(=O)O)C(=O)O; NMeL = CN[C@@H](CC(C)C)C(=O)O; Morpholide = C1CN(*)CCO1; NMeA = CN[C@@H](C)C(=O)O; NMeAib = CNC(C)(C)C(=O)O; Ac5c = NC1(C(=O)O)CCCC1; Aze = O=C(O)[C@@H]1CCN1; Sar = CNCC(=O)O
Observation type: IC50 (nM)

- CC[C@H](C)[C@@H]1NC(=O)[C@H](CC(C)C)N(CC)C(=O)C[C@@H](C(=O)N2CCOCC2)N(C)C(=O)[C@H](C2CCCC2)N(C)C(=O)C2(CCCC2)NC(=O)[C@@H]2CCCN2C(=O)[C@H](CCc2ccc(C(F)(F)F)c(Cl)c2)NC(=O)CN(C)C(=O)[C@H](CC2CCCCC2)N(C)C(=O)[C@@H]2CCN2C(=O)[C@H](C)N(C)C1=O [Compound 1220] ([NEtLeu]I[NMeA][Aze][NMeCha][Sar][hPhe(3-Cl-4-CF3)]P[Ac5c][NMeGly(cPent)][NMeD]-Morpholide; lactam N-11): 0.64
- CC[C@H](C)[C@@H]1NC(=O)[C@H](CC(C)C)N(C)C(=O)C[C@@H](C)N(C)C(=O)[C@H](C(C)C)NC(=O)C(C)(C)N(C)C(=O)[C@H](CC(C)C)NC(=O)[C@H](CCc2ccc(C(F)(F)F)c(F)c2)NC(=O)CN(C)C(=O)[C@H](CC2CCCCC2)N(C)C(=O)CN(C)C(=O)CN(C)C1=O [Compound 967] (cyclo(I[Sar][Sar][NMeCha][Sar][hPhe(3-F,4-CF3)]L[NMeAib]V[NMedβ3hAla][NMeL])): 58
